target_of_assay: Procathepsin L (Homo sapiens, UniProt P07711)
Sequence (P07711 114-333 limits assumed): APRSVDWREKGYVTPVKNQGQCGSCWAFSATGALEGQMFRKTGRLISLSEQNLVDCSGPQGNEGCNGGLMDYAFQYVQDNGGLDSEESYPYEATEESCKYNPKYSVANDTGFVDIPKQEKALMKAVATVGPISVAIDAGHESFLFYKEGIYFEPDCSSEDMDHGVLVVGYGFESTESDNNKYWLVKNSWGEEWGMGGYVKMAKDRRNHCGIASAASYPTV
assay_overview: Inhibition of human Cathepsin L assessed as residual activity using Cbz-FR-AMC as substrate at 1 uM preincubated for 20 mins at room temperature followed by substrate addition and measured after 10 mins by FRET assay
conditions_used: time 30.0 min
# if value of Activity reaches 9%, tag rule met; if it stays below, tag rule not met

# input Item CCCC[C@H](NC(=O)c1ccccc1F)C(=O)N[C@H](/C=C/C(C)=O)C[C@@H]1CCNC1=O with Activity of 9% or above?
# output rule not met

# input Next entry: CC(=O)/C=C/[C@H](C[C@@H]1CCNC1=O)NC(=O)[C@H](CC(C)C)NC(=O)c1ccc(F)cc1
# output rule not met

# input One more molecule: CC(=O)/C=C/[C@H](C[C@@H]1CCNC1=O)NC(=O)[C@H](CC(C)(C)C)NC(=O)c1ccc(F)cc1
# output rule met

# input Continue with CC(=O)/C=C/[C@H](C[C@@H]1CCNC1=O)NC(=O)[C@H](CC(C)(C)C)NC(=O)c1ccccc1F
# output rule met

# input What would you report for CC(=O)/C=C/[C@H](C[C@@H]1CCNC1=O)NC(=O)[C@H](CC1CCCCC1)NC(=O)c1cccc(F)c1 ?
# output rule not met

# input Same thing, different molecule: CCCC[C@H](NC(=O)c1ccc(F)cc1)C(=O)N[C@H](/C=C/C(C)=O)C[C@@H]1CCNC1=O
# output rule met
